experimentalSystem: UniProt P30968
Sequence (P30968 whole entry): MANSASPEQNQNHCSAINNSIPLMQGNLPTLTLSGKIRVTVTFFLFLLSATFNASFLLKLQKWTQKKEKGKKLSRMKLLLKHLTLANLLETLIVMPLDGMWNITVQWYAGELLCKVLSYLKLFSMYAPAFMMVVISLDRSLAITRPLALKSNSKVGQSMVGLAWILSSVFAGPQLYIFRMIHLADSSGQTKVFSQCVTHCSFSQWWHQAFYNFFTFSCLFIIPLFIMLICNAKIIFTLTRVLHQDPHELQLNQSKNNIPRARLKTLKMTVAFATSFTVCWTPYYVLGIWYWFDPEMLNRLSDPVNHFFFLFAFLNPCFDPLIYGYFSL
protocolDetails: Antagonist activity at N-terminal FLAG-tagged human full-length GnRHR expressed in HEK293T cells assessed as inhibition of GnRH-induced calcium mobilization preincubated for 15 mins followed by agonist addition by FLIPR assay
pIC50: −log10 of the molar value.
quantityKind: pIC50

Check out these entries, answers already filled in.
CC(C)(C)c1ccc(-c2nc3c(N4CCN(CCF)CC4)cccc3[nH]2)cc1    4.90
C#CCN1CCN(c2cccc3[nH]c(-c4ccc(C(C)(C)C)cc4)nc23)CC1    4.70

a = CC(C)(C)OC(=O)N[C@@H](Cn1cc(CN2CCN(c3cccc4[nH]c(-c5ccc(C(C)(C)C)cc5)nc34)CC2)nn1)C(=O)O
b = CC(C)(C)c1ccc(-c2nc3c(N4CCN(Cc5cn(-c6ccc(F)cc6)nn5)CC4)cccc3[nH]2)cc1
c = CC(C)(C)c1ccc(-c2nc3c(N4CCN(Cc5cn(-c6nc7ccccc7[nH]6)nn5)CC4)cccc3[nH]2)cc1
Ordering criterion: pIC50; begin with the maximum. In plain terms: list the labels in the order you were asked to.
c, a, b

Data origin, for the record: ChEMBL document CHEMBL4261559
